Measured % Inhibition at 10 μM, listed per entry for reference.
Biological target: UniProt:P06737
Test: Glycogen phosphorylase a activity test
Type: biochemical
Settings: 10 μM test substance; GPa measured in reverse direction (glycogen synthesis from glucose 1-phosphate)

Input Smiles	% Inhibition at 10 μM, %
COC(=O)C(=O)Nc1ccc(OC)c(NC(=O)NC(=O)c2cc(F)c(F)cc2Cl)c1	99
COc1ccc(NC(=O)c2cc3cc(Cl)ccc3o2)cc1NC(=O)NC(=O)c1cc(F)c(F)cc1Cl	101
O=C(NC(=O)c1cc(F)c(F)cc1Cl)Nc1cc(NC(=O)C(=O)O)ccc1OC(F)(F)F	101
COC(=O)CC(=O)Nc1cc(NC(=O)NC(=O)c2cc(F)c(F)cc2Cl)c(C)cc1OC	95
O=C(O)CCC(=O)Nc1ccc(OC(F)(F)F)c(NC(=O)NC(=O)c2cc(F)c(F)cc2Cl)c1	99
O=C(O)CC(=O)Nc1ccc(OC(F)(F)F)c(NC(=O)NC(=O)c2cc(F)c(F)cc2Cl)c1	100
CCC(=O)Nc1ccc(OC)c(NC(=O)NC(=O)c2cc(F)c(F)cc2Cl)c1	101
COc1ccc2oc(C(=O)Nc3ccc(OC)c(NC(=O)NC(=O)c4cc(F)c(F)cc4Cl)c3)cc2c1	102

* * *

Biological target: human glycogen phosphorylase a (Homo sapiens, UniProt P06737)
Sequence (P06737 1-847): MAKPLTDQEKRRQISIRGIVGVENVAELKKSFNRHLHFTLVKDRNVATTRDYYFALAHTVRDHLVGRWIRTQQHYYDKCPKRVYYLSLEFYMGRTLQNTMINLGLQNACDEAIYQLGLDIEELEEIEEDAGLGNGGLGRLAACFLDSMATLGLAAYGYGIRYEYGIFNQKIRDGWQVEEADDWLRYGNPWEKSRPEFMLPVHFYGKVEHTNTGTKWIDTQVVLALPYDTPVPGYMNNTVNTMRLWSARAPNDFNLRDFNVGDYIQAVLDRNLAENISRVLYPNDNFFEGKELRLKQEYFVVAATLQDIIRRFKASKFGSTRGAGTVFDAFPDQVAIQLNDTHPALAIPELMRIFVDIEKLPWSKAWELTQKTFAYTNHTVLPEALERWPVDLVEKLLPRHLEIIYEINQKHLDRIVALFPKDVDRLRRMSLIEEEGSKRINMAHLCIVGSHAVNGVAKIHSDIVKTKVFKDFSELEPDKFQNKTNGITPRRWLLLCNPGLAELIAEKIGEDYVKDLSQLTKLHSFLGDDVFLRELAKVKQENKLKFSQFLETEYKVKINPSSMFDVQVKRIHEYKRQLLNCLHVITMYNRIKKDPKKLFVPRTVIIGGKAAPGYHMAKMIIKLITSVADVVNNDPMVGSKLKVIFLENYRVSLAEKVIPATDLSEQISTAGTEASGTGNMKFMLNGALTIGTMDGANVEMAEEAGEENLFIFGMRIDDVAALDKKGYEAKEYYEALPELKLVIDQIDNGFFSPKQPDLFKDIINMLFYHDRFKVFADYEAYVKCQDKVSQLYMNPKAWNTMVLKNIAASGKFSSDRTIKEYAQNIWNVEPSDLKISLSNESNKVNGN
Experiment: Glycogen phosphorylase a activity test
Format: biochemical
Conditions: 10 μM test substance; GPa measured in reverse direction (glycogen synthesis from glucose 1-phosphate)
Experimental: Glycogen Phophorylase a Activity Test The effect of compounds on the activity of the active form of glycogen phosphorylase (GPa) was measured in the reverse direction by monitoring the synthesis of glycogen from glucose 1-phosphate by determining the release of inorganic phosphate. […]

Compound	Measured Target	% Inhibition at 10 μM (%)
CCN(CC)c1ccc(NC(C)=O)cc1NC(=O)NC(=O)c1cc(F)c(F)cc1Cl [Example 72]	human glycogen phosphorylase a (Homo sapiens, UniProt P06737)	96
COC(=O)CC(=O)Nc1cc(NC(=O)NC(=O)c2cc(F)c(F)cc2Cl)c(OC)cc1C [Example 16]	human glycogen phosphorylase a (Homo sapiens, UniProt P06737)	95
COc1cc(C)c(NC(=O)NC(=O)c2cc(F)c(F)cc2Cl)cc1NC(=O)C(=O)O [Example 13]	human glycogen phosphorylase a (Homo sapiens, UniProt P06737)	94
COc1ccc(NC(=O)c2ccco2)cc1NC(=O)NC(=O)c1cc(F)c(F)cc1Cl [Example 32]	human glycogen phosphorylase a (Homo sapiens, UniProt P06737)	102
COc1ccc(NC(=O)c2ccc(F)cc2)cc1NC(=O)NC(=O)c1cc(F)c(F)cc1Cl [Example 40]	human glycogen phosphorylase a (Homo sapiens, UniProt P06737)	98
CC(=O)Nc1ccc(N(C)C)c(NC(=O)NC(=O)c2cc(F)c(F)cc2Cl)c1 [Example 71]	human glycogen phosphorylase a (Homo sapiens, UniProt P06737)	97
COC(=O)C(=O)Nc1ccc(OC(F)(F)F)c(NC(=O)NC(=O)c2cc(F)c(F)cc2Cl)c1 [Example 65]	human glycogen phosphorylase a (Homo sapiens, UniProt P06737)	98
COc1cccc(CC(=O)Nc2ccc(OC)c(NC(=O)NC(=O)c3cc(F)c(F)cc3Cl)c2)c1 [Example 41]	human glycogen phosphorylase a (Homo sapiens, UniProt P06737)	104
